system-tested: human M4 muscarinic acetylcholine receptor (Homo sapiens)
Sequence (P08173 whole entry): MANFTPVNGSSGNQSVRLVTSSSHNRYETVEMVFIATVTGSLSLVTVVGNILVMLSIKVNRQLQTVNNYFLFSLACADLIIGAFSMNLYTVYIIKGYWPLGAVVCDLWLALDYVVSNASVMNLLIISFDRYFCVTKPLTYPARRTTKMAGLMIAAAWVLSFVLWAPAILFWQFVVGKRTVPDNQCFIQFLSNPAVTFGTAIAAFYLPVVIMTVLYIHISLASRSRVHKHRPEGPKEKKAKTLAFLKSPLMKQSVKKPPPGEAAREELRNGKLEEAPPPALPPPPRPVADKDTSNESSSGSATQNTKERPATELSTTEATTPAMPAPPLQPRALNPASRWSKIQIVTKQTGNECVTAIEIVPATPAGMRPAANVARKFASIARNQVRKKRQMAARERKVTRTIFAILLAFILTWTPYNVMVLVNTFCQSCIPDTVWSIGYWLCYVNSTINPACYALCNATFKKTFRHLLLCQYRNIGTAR
protocol-text: human FLIPR-based M4 PAM assay (calcium mobilization, CHO-K1 cells with human M4 receptor and Gαqi5)
measurement-setup: inflection point (IP) of dose response curve, acetylcholine added at 20% of maximum response, read-out: M4 FLIPPR Hu IP
measure-name: EC50 (nM)
Answers are plain numbers, in nM.

* N#Cc1ccc(-c2cnc(CC3(F)CCC3)o2)c(-c2ccc3cccnc3c2)n1 | 65
* Cc1ccc(-c2cnc(Cc3ccccc3)o2)c(-c2ccc3cccnc3c2)n1 | 24
* CN1Cc2ccc(-c3nc(C#N)ccc3-c3cnc(CC(C)(C)C(F)(F)F)o3)cc2C1=O | 76

Proceeding to the next compound to report its EC50.
Reported EC50 of CCC(C)(F)Cc1ncc(-c2ccc(C#N)nc2-c2ccn3cc(C)nc3c2)o1 (stereo not shown) : 31

====

For each of the molecules below, state its pEC50.
system-tested: human M4 muscarinic acetylcholine receptor (Homo sapiens)
protocol-text: human FLIPR-based M4 PAM assay (calcium mobilization, CHO-K1 cells with human M4 receptor and Gαqi5)
measurement-setup: inflection point (IP) of dose response curve, acetylcholine added at 20% of maximum response, read-out: M4 FLIPPR Hu IP
Give bare numbers, as −log10 of the molar value.

Check out these entries, answers already filled in.
* Cc1cn2ccc(-c3nc(C#N)ccc3-c3cnc(CC(F)C4CC4)o3)cc2n1 (stereo not drawn) [Example 87] | 7.36
* CCC(F)(CC)Cc1ncc(-c2ccc(C#N)nc2-c2ccc3cccnc3c2)o1 | 6.86

// each molecule listed below needs its pEC50
1. Cc1ccc(-c2cnc(Cc3ccc(F)cc3)o2)c(N2CCn3ccnc3C2)n1
2. Cc1nc2cc(-c3nc(C#N)ccc3-c3cnc(CCC(C)(C)F)o3)ccc2n1C

// result
1: 6.34; 2: 7.22

// each molecule listed below needs its pEC50
1. Cc1cn2ccc(-c3nc(C#N)ccc3-c3cnc(CC(C)C(F)(F)F)o3)cc2n1 (stereo not drawn)
2. CN1Cc2ccc(-c3nc(C#N)ccc3-c3cnc(CC4(C)CCCC4)o3)cc2C1=O
3. Cc1cn2ccc(-c3nc(C#N)ccc3-c3cnc(CCC(F)(F)C(F)(F)F)o3)cc2n1
4. Cn1cnc2cc(-c3ncccc3-c3cnc(CC(C)(C)C(F)(F)F)o3)ccc21
5. Cc1cn2ccc(-c3nc(C#N)ccc3-c3cnc(CC(F)C4CC4)o3)cc2n1 (stereo not drawn) [Example 88]
6. N#Cc1ccc(-c2cnc(CCC(F)(F)C(F)(F)F)o2)c(-c2ccn3ccnc3c2)n1
7. Cc1nnc2cc(-c3nc(C#N)ccc3-c3cnc(CC(C)(C)C)o3)ccn12

// result
1. 6.71
2. 7.85
3. 6.88
4. 6.89
5. 7.20
6. 6.98
7. 6.89

// each molecule listed below needs its pEC50
1. FC1(Cc2ncc(-c3cccnc3-c3ccn4ccnc4c3)o2)CCCC1
2. Cc1nc2cc(-c3nc(C#N)ccc3-c3cnc(CCC(C)(F)F)o3)ccn2n1
3. N#Cc1ccc(-c2cnc(CC3CCCC3)o2)c(-c2cnc3c(c2)C(=O)N(CC2CC2)C3)n1
4. N#Cc1ccc(-c2cnc(CC(F)C3CC3)o2)c(-c2ccn3ccnc3c2)n1 (stereo not drawn) [Example 85]
5. N#Cc1ccc(-c2cnc(CC3CCCC3)o2)c(-c2ccc3cccnc3c2)n1
6. O=C1c2cc(-c3nc4c(cc3-c3cnc(CC5CCCC5)o3)CCC4)cnc2CN1CC1CC1

// result
1: 6.98; 2: 6.74; 3: 7.38; 4: 7.31; 5: 7.62; 6: 6.75
